Reference source for all entries: patent US5731432A

# Test system: AMPDA activity from porcine heart
# Experiment description: AMP Deaminase Assay (Example A)
# Assay type: biochemical
# Condition notes: selectivity ratio=[ADA Ki/Km]/[AMPDA Ki/Km]; K = 1,000
Exercise: state measured Selectivity Ratio for each of the compounds provided.
One number for each entry.

Compound	Reported result
Cc1ccccc1CCCn1cnc2c1N=CNCC2O (stereo not drawn) [compound 1f]	0.34
[N-]=[N+]=NC1CNC=Nc2c1ncn2CCCc1ccccc1 (stereo not drawn) [compound 1h]	0.16
CCCOc1ccc(CCCn2cnc3c2N=CNCC3O)cc1 (stereo not drawn) [compound 1i]	0.03
OC1CNC=Nc2c1ncn2C1CCCCCC1 (stereo not drawn) [compound 1d, 3-cycloheptylcoformycin aglycone]	17

For every record below, what is its Selectivity Ratio?
1. O=C(O)c1cc(CCn2cnc3c2N=CNCC3O)cs1 (stereo not drawn) [compound 1o]
2. CCCCCCCn1cnc2c1N=CNCC2(C)O (stereo not drawn) [compound 1b, 3-heptyl-8-methylcoformycin aglycone]

Return:
1. 590
2. 6
